- Test system: XF 498 CNS
- ASSAY_NAME: NCI tumour cell line growth inhibition, 48 h
Exercise: state measured TGI for each of the molecules provided.

For O=C1C2Nc3ccccc3SC2C(=O)N1c1ccc(Br)cc1 (stereo not drawn) , what is its reported TGI?
> 100 µM

For O=C(NCCCCCCCCCCCCNC(=O)c1cccc2ccccc12)c1cccc2ccccc12 , what is its reported TGI?
> 75.8 µM

For COC(=O)CCC(NC(=S)N/N=C(\C)c1cnc2ccccc2n1)C(=O)OC (stereo not drawn) , what is its reported TGI?
> 100 µM

For N#CC12Cc3cc4c(cc3-c3cccc(c31)CCN2C(=O)c1ccccc1)OCO4 (stereo not drawn) , what is its reported TGI?
> 100 µM

For O=C(N/C(=C\c1ccc(Cl)cc1)c1nc2ccccc2[nH]1)c1ccccc1 , what is its reported TGI?
36.9 µM

For COc1ccc(C/C(=N/O)C(=O)NCCc2cc(Br)c(OCCCN(C)C)c(Br)c2)cc1Br , what is its reported TGI?
25.6 µM

For CCN(CC)C(=O)Cc1c(C(=O)N(CC)CC)c(=O)nc2sccn12 , what is its reported TGI?
> 100 µM

For N#Cc1c(-c2ccc(Cl)c(Cl)c2)c(-c2ccc(Cl)c(Cl)c2)nn(CC(=O)O)c1=O , what is its reported TGI?
98.4 µM
